# Test system: SN12C renal
# Protocol: NCI tumour cell line growth inhibition, 48 h; in the data active means GI50 below about 0.43 µM; inactive means the rest
Classes used: true for active, false for inactive

{"columns": ["Molecule", "Target entity", "Group label"],
 "data": [
  ["COc1cc(OC)cc(Oc2cnc3cc(N)cc(N)c3n2)c1", "SN12C renal", "false"],
  ["O=[N+]([O-])c1ccc(/C=C/c2nc3ccc(Cl)cc3[nH]2)cc1", "SN12C renal", "false"],
  ["COc1ccc(/C=C/C(=O)c2c(O)ccc3c(C)c(C(=O)O)oc23)cc1", "SN12C renal", "false"],
  ["O=C(c1ccccc1)C(Cl)C(Cl)c1ccccc1 (stereo not given)", "SN12C renal", "false"],
  ["CCn1c(-c2nonc2N)nc2c(C#CC(C)(C)O)ncc(OC3CCNCC3)c21", "SN12C renal", "false"],
  ["CCCCCCCCCCCCCC[n+]1ccccc1", "SN12C renal", "false"],
  ["O=C(Cn1c(C(=O)c2ccc(Cl)cc2)nc(-c2ccc(Cl)cc2)c1-c1ccc(Cl)cc1)c1ccccc1", "SN12C renal", "false"],
  ["O=C(/C=C/C12c3ccccc3C(c3ccccc31)C1C(=O)N(c3ccc(Cl)cc3)C(=O)C12)c1ccccn1 (stereo not given)", "SN12C renal", "true"],
  ["O=C1Nc2ccccc2/C1=C\\c1c(-c2ccccc2)nc2sccn12", "SN12C renal", "false"],
  ["CNS(=O)(=O)OCC1OC(n2cnc3cncnc32)C(O)C1O (stereo not given)", "SN12C renal", "false"]
]}
